Entries and their IC50
tested on: A2780; assay: MTT assay, second set of experiments (Experiment 4), single agents; assay type: cell-based; settings: Homo sapiens
# number then unit; no other words

Known results for compounds:
                           smiles_string  endpoint_name   result
0      O=C(/C=C/c1ccc(O)cc1)c1ccc(O)cc1O           IC50  2400 nM
1  COc1c(O)cc(O)c2c(=O)cc(-c3ccccc3)oc12           IC50   670 nM

Now for another entry.
GET /values?item= C=C1C(=O)[C@]23[C@H](O)[C@H]1CC[C@H]2[C@@]12CO[C@]3(O)[C@@H](O)[C@@H]1C(C)(C)CC[C@@H]2O &system= A2780 returns IC50: 810 nM
